Data origin, for the record: the supplement of paper PMC7877785

# test: self-splicing fitness, log relative to wild type (ln ratio); higher = more splicing; Tetrahymena group I intron in knt gene, E. coli kanamycin selection, DiMSum; sequences stand for … in CUCUCU…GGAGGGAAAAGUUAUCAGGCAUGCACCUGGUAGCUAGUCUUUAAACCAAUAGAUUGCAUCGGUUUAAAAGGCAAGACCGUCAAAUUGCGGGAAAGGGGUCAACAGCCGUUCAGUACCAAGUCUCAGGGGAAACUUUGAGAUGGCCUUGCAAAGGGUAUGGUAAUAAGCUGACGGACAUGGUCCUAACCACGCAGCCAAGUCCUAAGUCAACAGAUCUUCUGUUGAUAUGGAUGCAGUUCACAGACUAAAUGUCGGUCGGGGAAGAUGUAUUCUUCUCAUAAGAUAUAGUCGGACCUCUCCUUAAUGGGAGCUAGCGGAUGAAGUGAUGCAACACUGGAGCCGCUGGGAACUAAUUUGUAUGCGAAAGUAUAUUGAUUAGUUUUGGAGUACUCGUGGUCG;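 note: selection with 25 µg/mL kanamycin versus none on LB agar overnight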
# experimental-conditions: 37 °C
Classify as follows. Reported self-splicing fitness (ln) greater than or equal to -0.8: yes (1). Reported self-splicing fitness (ln) below: no (0).

I'd appreciate it if you could say whether ACACAGCAAUAUUACGUGGC has self-splicing fitness (ln) at least equal to -0.8.
yes (1)

What about this sequence? CGAAAGCAAUAUUACGUUCC
yes (1)

What about this sequence? UCCAAGCAAUAUUACGUUUG
no (0)

What about this sequence? GACGAGCAAUAUUACGUGUG
no (0)

What about this sequence? AGGGAGCAAUAUUACGACAG
no (0)

What about this sequence? GAGCAGCAAUAUUACGGUGA
yes (1)

What about this sequence? GAGAAGCAAUAUUACGUAUG
no (0)

What about this sequence? GAAUAGCAAUAUUACGAGAC
yes (1)

What about this sequence? UGCCAGCAAUAUUACGCAAC
no (0)

What about this sequence? UCUCAGCAAUAUUACGUAGA
yes (1)

What about this sequence? UUCAAGCAAUAUUACGCGCG
yes (1)

What about this sequence? UUGAAGCAAUAUUACGGGCC
no (0)

What about this sequence? CUCCAGCAAUAUUACGAGAA
no (0)

What about this sequence? GCACAGCAAUAUUACGUUAC
no (0)

What about this sequence? ACCUAGCAAUAUUACGCGGA
yes (1)

What about this sequence? UAACAGCAAUAUUACGAUCA
yes (1)

What about this sequence? UGGUAGCAAUAUUACGGUGU
yes (1)

What about this sequence? UGUGAGCAAUAUUACGGUGA
no (0)

What about this sequence? GUCAAGCAAUAUUACGAGAC
no (0)

What about this sequence? UAUUAGCAAUAUUACGUUCA
yes (1)

What about this sequence? GGGCAGCAAUAUUACGAGGA
no (0)

What about this sequence? CCAGAGCAAUAUUACGCCAC
no (0)

What about this sequence? GGCGAGCAAUAUUACGGCCA
no (0)

What about this sequence? GGAGAGCAAUAUUACGGUCG
no (0)

What about this sequence? UAUUAGCAAUAUUACGGUUA
yes (1)

What about this sequence? UCCCAGCAAUAUUACGUCUC
no (0)

What about this sequence? UACGAGCAAUAUUACGCAUU
no (0)

What about this sequence? GCAAAGCAAUAUUACGCAAC
no (0)

What about this sequence? CCCCAGCAAUAUUACGCUGG
no (0)

What about this sequence? UUUUAGCAAUAUUACGUAAG
yes (1)

What about this sequence? AAAUAGCAAUAUUACGGCAU
yes (1)

What about this sequence? CCACAGCAAUAUUACGGGUU
no (0)

What about this sequence? AGGAAGCAAUAUUACGAUCG
yes (1)

What about this sequence? CCUAAGCAAUAUUACGGUGG
no (0)

What about this sequence? CUCUAGCAAUAUUACGAUUG
no (0)

What about this sequence? ACUUAGCAAUAUUACGAUCA
yes (1)

What about this sequence? UACUAGCAAUAUUACGGCCG
yes (1)

What about this sequence? GUCAAGCAAUAUUACGGACA
no (0)

* * *

Exercise: for every item that follows, state its recorded self-splicing fitness (ln).
# test: self-splicing fitness, log relative to wild type (ln ratio); higher = more splicing; Tetrahymena group I intron in knt gene, E. coli kanamycin selection, DiMSum; sequences stand for … in CUCUCU…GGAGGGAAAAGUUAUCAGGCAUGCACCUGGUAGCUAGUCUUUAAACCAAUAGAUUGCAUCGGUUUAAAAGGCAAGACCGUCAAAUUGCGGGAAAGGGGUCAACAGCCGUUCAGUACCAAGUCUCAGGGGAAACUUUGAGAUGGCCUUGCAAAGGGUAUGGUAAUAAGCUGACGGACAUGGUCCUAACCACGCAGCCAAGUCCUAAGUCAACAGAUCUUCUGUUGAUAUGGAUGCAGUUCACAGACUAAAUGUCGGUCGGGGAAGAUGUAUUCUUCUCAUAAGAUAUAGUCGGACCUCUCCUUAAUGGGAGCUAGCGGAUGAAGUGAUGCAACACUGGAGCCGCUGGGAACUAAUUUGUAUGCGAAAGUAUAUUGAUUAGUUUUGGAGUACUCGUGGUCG
# experimental-conditions: 37 °C
Number only, please.

Requested field: self-splicing fitness (ln). Item: GAGGAGCAAUAUUACGGAUU
-1.95

What about this sequence? GAGAAGCAAUAUUACGGAGA
-2.04

What about this sequence? UAGCAGCAAUAUUACGGUCC
-2.03

* * *

# test: self-splicing fitness, log relative to wild type (ln ratio); higher = more splicing; Tetrahymena group I intron in knt gene, E. coli kanamycin selection, DiMSum; sequences stand for … in CUCUCU…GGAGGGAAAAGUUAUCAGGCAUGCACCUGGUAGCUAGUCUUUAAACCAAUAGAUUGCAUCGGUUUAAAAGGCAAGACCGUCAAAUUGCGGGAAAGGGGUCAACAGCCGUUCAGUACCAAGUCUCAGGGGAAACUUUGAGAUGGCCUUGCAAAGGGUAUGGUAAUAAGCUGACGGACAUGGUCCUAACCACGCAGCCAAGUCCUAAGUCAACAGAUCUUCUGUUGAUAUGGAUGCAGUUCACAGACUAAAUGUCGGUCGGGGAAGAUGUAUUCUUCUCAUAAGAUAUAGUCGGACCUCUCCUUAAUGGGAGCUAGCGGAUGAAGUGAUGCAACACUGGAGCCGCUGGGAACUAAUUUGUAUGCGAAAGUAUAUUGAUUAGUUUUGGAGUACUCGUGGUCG
# experimental-conditions: 30 °C
Exercise: for every item that follows, state its recorded self-splicing fitness (ln).
Number only, please.

Requested field: self-splicing fitness (ln). Item: UCACAGCAAUAUUACGUCGA
-0.572

What about this sequence? UCCUAGCAAUAUUACGCCUU
-2.98

What about this sequence? CUGGAGCAAUAUUACGGUCG
-1.2

What about this sequence? UGGGAGCAAUAUUACGCAUC
-3

What about this sequence? UGAGAGCAAUAUUACGUCUU
-3.18

What about this sequence? AACGAGCAAUAUUACGGGAA
-2.18

What about this sequence? AUUCAGCAAUAUUACGUUCC
-1.54

What about this sequence? UUAAAGCAAUAUUACGUUCG
0.19

What about this sequence? GAACAGCAAUAUUACGCCUU
-0.755

What about this sequence? AGUUAGCAAUAUUACGUUAU
-3.25

What about this sequence? GACCAGCAAUAUUACGACAG
-3.85

What about this sequence? CUACAGCAAUAUUACGCAUA
-3.32

What about this sequence? UCGCAGCAAUAUUACGGAAG
-2.74

What about this sequence? CCCAAGCAAUAUUACGGGAA
-2.75

What about this sequence? UUAAAGCAAUAUUACGCGAU
-3.01

What about this sequence? UUGUAGCAAUAUUACGCGUU
-2.56

What about this sequence? GCCAAGCAAUAUUACGCUAU
-1.23

What about this sequence? AUAAAGCAAUAUUACGCGAA
-1.19

What about this sequence? AAAUAGCAAUAUUACGGCAU
-0.403

What about this sequence? CGAGAGCAAUAUUACGCAAA
-2.67

What about this sequence? AGCAAGCAAUAUUACGAUAG
-2.98

What about this sequence? CCGCAGCAAUAUUACGAGCA
-3.01

* * *

# test: self-splicing fitness, log relative to wild type (ln ratio); higher = more splicing; Tetrahymena group I intron in knt gene, E. coli kanamycin selection, DiMSum; sequences stand for … in CUCUCU…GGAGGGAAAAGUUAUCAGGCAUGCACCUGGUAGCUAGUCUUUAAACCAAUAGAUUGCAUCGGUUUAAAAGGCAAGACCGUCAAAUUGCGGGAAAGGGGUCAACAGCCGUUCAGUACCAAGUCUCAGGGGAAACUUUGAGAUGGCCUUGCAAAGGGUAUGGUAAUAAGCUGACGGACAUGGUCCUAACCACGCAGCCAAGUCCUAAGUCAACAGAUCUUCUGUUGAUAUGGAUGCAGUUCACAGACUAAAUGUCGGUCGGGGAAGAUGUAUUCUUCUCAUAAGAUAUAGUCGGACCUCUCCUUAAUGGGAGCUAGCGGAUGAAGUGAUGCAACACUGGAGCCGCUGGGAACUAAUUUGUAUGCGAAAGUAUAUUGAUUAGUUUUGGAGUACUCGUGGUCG
# experimental-conditions: 37 °C
value-kind: self-splicing fitness (ln)
Number only, please.

Requested field: self-splicing fitness (ln). Item: CUUUAGCAAUAUUACGGGAU
-2.67

What about this sequence? ACCUAGCAAUAUUACGGACU
0.508

What about this sequence? CCCAAGCAAUAUUACGAGGC
-3.25

What about this sequence? AUUUAGCAAUAUUACGAGAA
-1.2

What about this sequence? CUGGAGCAAUAUUACGGCAA
-2.75

What about this sequence? CGUAAGCAAUAUUACGGACU
-0.0508

What about this sequence? AGAAAGCAAUAUUACGGCGU
0.133

What about this sequence? UGGAAGCAAUAUUACGUUAU
-3.09

What about this sequence? GGGAAGCAAUAUUACGAGUA
-2.29
